mouse MMP-8 (Mus musculus) IC50 data
Sequence (O70138 101-465): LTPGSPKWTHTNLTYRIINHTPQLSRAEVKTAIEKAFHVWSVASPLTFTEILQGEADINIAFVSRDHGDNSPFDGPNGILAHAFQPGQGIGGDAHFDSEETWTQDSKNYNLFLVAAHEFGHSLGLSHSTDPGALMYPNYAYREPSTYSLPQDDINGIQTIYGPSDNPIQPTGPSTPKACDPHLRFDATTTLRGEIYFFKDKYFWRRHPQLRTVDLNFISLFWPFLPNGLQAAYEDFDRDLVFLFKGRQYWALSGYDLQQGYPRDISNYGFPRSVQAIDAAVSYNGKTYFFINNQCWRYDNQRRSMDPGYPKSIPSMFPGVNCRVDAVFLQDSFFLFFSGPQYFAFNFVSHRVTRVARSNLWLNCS
Respond numerically; units are nM and should not be typed.

Query block: Which IC50 value belongs to O=C(O)[C@H]1[C@H](Cn2nnc3ccc(C(F)(F)F)cc3c2=O)CC[C@@H]1C(=O)c1ccc(OCCC2CCOCC2)cc1 (stereo in doubt) [Example 10] ?
Result block: 14

Query block: Which IC50 value belongs to O=C(O)[C@@H]1[C@@H](Cn2nnc3ccc(C(F)(F)F)cc3c2=O)CC[C@H]1C(=O)c1ccc(OCCC2CCOCC2)cc1 (single isomer, unassigned) [Example 11] ?
Result block: 34

Query block: Which IC50 value belongs to O=C(O)[C@H]1[C@H](Cn2nnc3ccccc3c2=O)CC[C@@H]1C(=O)c1ccc(OCC2CCOCC2)cc1 (stereo in doubt) [Example 1] ?
Result block: 40

Query block: Which IC50 value belongs to O=C(O)[C@@H]1[C@@H](Cn2nnc3ccccc3c2=O)CC[C@H]1C(=O)c1ccc(OCC2CCOCC2)cc1 (stereo in doubt) [Example 2] ?
Result block: 21

----------
Please go through the items and note down their IC50.
Respond numerically; units are nM and should not be typed.

Query block: What IC50 appears in the records for this compound with UniProt:P33434? O=C(O)[C@@H]1[C@@H](Cn2nnc3ccccc3c2=O)CC[C@H]1C(=O)c1ccc(OCC2CCOCC2)cc1 (stereo in doubt)
Sequence (P33434 110-662): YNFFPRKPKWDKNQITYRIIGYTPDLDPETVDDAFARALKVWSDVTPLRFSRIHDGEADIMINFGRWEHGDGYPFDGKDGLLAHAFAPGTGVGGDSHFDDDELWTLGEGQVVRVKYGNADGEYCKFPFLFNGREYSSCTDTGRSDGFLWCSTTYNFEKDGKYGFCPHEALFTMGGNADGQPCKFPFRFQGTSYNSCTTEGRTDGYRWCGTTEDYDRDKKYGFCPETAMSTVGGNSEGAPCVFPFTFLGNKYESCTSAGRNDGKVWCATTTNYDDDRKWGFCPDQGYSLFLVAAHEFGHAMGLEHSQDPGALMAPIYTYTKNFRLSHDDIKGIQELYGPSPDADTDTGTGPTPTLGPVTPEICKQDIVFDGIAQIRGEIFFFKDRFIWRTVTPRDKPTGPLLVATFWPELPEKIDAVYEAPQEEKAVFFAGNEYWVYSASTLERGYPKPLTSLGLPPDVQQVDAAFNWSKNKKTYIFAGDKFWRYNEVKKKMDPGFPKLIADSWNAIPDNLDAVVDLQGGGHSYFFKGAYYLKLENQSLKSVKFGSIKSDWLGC
Result block: 58

Query block: What IC50 appears in the records for this compound with UniProt:P33434? O=C(O)[C@@H]1[C@@H](Cn2nnc3ccccc3c2=O)CC[C@H]1C(=O)c1ccc(OCCC2CCOCC2)cc1 (single isomer, unassigned)
Result block: 45

Query block: What IC50 appears in the records for this compound with UniProt:P33434? O=C(O)[C@H]1[C@H](Cn2nnc3ccccc3c2=O)CC[C@@H]1C(=O)c1ccc(OCC2CCOCC2)cc1 (stereo in doubt)
Result block: 170

Query block: What IC50 appears in the records for this compound with UniProt:P33434? O=C(O)[C@H]1[C@H](Cn2nnc3ccc(C(F)(F)F)cc3c2=O)CC[C@@H]1C(=O)c1ccc(OCCC2CCOCC2)cc1 (stereo in doubt)
Result block: 300

----------
measured-property: IC50 (µM)
Respond numerically; units are µM and should not be typed.

Query block: What IC50 appears in the records for this compound with mouse MMP-9 (Mus musculus)? O=C(O)[C@@H]1[C@@H](Cn2nnc3ccccc3c2=O)CC[C@H]1C(=O)c1ccc(OCCC2CCOCC2)cc1 (single isomer, unassigned) [Example 5]
Sequence (P41245 108-730): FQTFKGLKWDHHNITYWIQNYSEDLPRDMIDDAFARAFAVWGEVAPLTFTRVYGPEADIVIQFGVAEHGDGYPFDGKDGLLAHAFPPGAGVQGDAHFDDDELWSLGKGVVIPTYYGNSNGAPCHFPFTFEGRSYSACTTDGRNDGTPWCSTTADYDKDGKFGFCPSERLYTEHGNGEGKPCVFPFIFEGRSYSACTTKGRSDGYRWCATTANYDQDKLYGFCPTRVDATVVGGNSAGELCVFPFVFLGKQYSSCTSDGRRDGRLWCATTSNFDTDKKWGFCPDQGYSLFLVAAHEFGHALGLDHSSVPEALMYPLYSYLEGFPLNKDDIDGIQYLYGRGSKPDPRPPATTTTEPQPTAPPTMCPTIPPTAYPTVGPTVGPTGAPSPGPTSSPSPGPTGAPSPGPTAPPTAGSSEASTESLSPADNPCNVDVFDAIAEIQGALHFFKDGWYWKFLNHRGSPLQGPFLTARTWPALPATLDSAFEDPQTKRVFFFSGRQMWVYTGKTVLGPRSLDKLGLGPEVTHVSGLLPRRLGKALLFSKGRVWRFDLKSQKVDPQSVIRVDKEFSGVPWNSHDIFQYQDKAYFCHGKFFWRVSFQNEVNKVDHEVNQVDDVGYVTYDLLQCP
Result block: 0.21

Query block: What IC50 appears in the records for this compound with mouse MMP-9 (Mus musculus)? O=C(O)[C@H]1[C@H](Cn2nnc3ccccc3c2=O)CC[C@@H]1C(=O)c1ccc(OCCC2CCOCC2)cc1 (stereo in doubt) [Example 4]
Result block: 1.5

Query block: What IC50 appears in the records for this compound with mouse MMP-9 (Mus musculus)? O=C(O)[C@@H]1[C@@H](Cn2nnc3ccccc3c2=O)CC[C@H]1C(=O)c1ccc(OCC2CCOCC2)cc1 (stereo in doubt) [Example 2]
Result block: 0.28

Query block: What IC50 appears in the records for this compound with mouse MMP-9 (Mus musculus)? O=C(O)[C@H]1[C@H](Cn2nnc3ccc(C(F)(F)F)cc3c2=O)CC[C@@H]1C(=O)c1ccc(OCCC2CCOCC2)cc1 (stereo in doubt) [Example 10]
Result block: 0.93

----------
UniProt:P22894 IC50 data
Sequence (P22894 101-467): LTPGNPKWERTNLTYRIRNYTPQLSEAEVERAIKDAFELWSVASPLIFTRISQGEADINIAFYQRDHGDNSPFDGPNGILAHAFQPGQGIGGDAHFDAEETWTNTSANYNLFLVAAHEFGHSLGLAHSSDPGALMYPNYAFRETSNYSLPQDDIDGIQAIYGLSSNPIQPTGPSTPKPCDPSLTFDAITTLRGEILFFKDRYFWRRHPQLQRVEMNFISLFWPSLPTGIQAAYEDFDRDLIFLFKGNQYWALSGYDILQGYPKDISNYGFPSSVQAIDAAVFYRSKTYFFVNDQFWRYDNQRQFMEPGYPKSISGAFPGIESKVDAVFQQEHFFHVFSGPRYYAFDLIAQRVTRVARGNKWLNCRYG
Respond numerically; units are nM and should not be typed.

Query block: Which IC50 value belongs to O=C(O)[C@@H]1[C@@H](Cn2nnc3ccccc3c2=O)CC[C@H]1C(=O)c1ccc(OCC2CCOCC2)cc1 (stereo in doubt) ?
Result block: 4.7

Query block: Which IC50 value belongs to Cc1ccc2nnn(C[C@@H]3CC[C@H](C(=O)c4ccc(OCCC5CCOCC5)cc4)[C@H]3C(=O)O)c(=O)c2c1 (racemic) ?
Result block: 28

Query block: Which IC50 value belongs to O=C(O)[C@H]1[C@H](Cn2nnc3ccccc3c2=O)CC[C@@H]1C(=O)c1ccc(OCCC2CCOCC2)cc1 (stereo in doubt) ?
Result block: 98

Query block: Which IC50 value belongs to O=C(O)[C@H]1[C@H](Cn2nnc3ccccc3c2=O)CC[C@@H]1C(=O)c1ccc(OCC2CCOCC2)cc1 (stereo in doubt) ?
Result block: 11

Query block: Which IC50 value belongs to Cc1ccc2nnn(C[C@H]3CC[C@@H](C(=O)c4ccc(OCCC5CCOCC5)cc4)[C@@H]3C(=O)O)c(=O)c2c1 (single isomer, unassigned) ?
Result block: 10

----------
Target protein (sequence): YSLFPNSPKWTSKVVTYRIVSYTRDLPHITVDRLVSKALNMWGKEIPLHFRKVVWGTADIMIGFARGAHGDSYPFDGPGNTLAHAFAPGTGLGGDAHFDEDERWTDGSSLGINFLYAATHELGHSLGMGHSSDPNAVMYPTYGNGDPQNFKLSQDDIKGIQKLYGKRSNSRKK
Please go through the items and note down their pIC50.
Keep it numeric: pIC50 is minus log10 of the concentration in mol/L.

Query block: Which pIC50 value belongs to O=C(O)[C@H]1[C@H](Cn2nnc3ccc(C(F)(F)F)cc3c2=O)CC[C@@H]1C(=O)c1ccc(OCCC2CCOCC2)cc1 (stereo in doubt) ?
Result block: 7.02

Query block: Which pIC50 value belongs to Cc1ccc2nnn(C[C@H]3CC[C@@H](C(=O)c4ccc(OCCC5CCOCC5)cc4)[C@@H]3C(=O)O)c(=O)c2c1 (single isomer, unassigned) ?
Result block: 6.54

----------
Please go through the items and note down their IC50.
target-entity: mouse MMP-7 (Mus musculus)
Sequence (Q10738 95-264): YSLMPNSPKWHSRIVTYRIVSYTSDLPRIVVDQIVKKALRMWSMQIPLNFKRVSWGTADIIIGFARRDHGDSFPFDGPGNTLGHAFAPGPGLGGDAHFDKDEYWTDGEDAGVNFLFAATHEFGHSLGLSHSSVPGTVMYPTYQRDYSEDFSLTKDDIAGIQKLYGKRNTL
Respond numerically; units are nM and should not be typed.

Query block: Which IC50 value belongs to O=C(O)[C@@H]1[C@@H](Cn2nnc3ccccc3c2=O)CC[C@H]1C(=O)c1ccc(OCCC2CCOCC2)cc1 (single isomer, unassigned) [Example 5] ?
Result block: 130

Query block: Which IC50 value belongs to Cc1ccc2nnn(C[C@@H]3CC[C@H](C(=O)c4ccc(OCCC5CCOCC5)cc4)[C@H]3C(=O)O)c(=O)c2c1 (racemic) [Example 19] ?
Result block: 630

----------
measured-property: pIC50
Keep it numeric: pIC50 is minus log10 of the concentration in mol/L.

Query block: What pIC50 appears in the records for this molecule with MMP-9 (Homo sapiens, UniProt P14780)? O=C(O)[C@@H]1[C@@H](Cn2nnc3ccccc3c2=O)CC[C@H]1C(=O)c1ccc(OCC2CCOCC2)cc1 (stereo in doubt) [Example 2]
Sequence (P14780 107-707 limits assumed): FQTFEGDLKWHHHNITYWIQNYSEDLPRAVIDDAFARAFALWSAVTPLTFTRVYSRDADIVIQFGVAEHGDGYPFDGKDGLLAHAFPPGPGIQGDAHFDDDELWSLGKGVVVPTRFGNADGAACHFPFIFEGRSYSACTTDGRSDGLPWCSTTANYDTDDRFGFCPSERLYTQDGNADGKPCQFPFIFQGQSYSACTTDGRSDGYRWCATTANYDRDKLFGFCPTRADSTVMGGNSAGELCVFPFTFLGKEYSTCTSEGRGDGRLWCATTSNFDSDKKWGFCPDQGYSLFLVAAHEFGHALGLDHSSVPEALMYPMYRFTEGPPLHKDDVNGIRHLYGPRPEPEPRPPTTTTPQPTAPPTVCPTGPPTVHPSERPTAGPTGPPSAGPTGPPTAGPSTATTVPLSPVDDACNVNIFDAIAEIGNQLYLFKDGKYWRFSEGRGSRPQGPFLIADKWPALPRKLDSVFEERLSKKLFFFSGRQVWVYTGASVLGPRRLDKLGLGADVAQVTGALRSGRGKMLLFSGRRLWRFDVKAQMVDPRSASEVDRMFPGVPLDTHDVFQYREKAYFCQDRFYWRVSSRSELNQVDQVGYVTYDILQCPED
Result block: 6.44

Query block: What pIC50 appears in the records for this molecule with MMP-9 (Homo sapiens, UniProt P14780)? Cc1ccc2nnn(C[C@H]3CC[C@@H](C(=O)c4ccc(OCCC5CCOCC5)cc4)[C@@H]3C(=O)O)c(=O)c2c1 (single isomer, unassigned) [Example 20]
Result block: 6.43

Query block: What pIC50 appears in the records for this molecule with MMP-9 (Homo sapiens, UniProt P14780)? O=C(O)[C@H]1[C@H](Cn2nnc3ccccc3c2=O)CC[C@@H]1C(=O)c1ccc(OCCC2CCOCC2)cc1 (stereo in doubt) [Example 4]
Result block: 5.30

Query block: What pIC50 appears in the records for this molecule with MMP-9 (Homo sapiens, UniProt P14780)? O=C(O)[C@@H]1[C@@H](Cn2nnc3ccccc3c2=O)CC[C@H]1C(=O)c1ccc(OCCC2CCOCC2)cc1 (single isomer, unassigned) [Example 5]
Result block: 6.34

Query block: What pIC50 appears in the records for this molecule with MMP-9 (Homo sapiens, UniProt P14780)? O=C(O)[C@@H]1[C@@H](Cn2nnc3ccc(C(F)(F)F)cc3c2=O)CC[C@H]1C(=O)c1ccc(OCCC2CCOCC2)cc1 (single isomer, unassigned) [Example 11]
Result block: 6.18

Query block: What pIC50 appears in the records for this molecule with MMP-9 (Homo sapiens, UniProt P14780)? O=C(O)[C@H]1[C@H](Cn2nnc3ccccc3c2=O)CC[C@@H]1C(=O)c1ccc(OCC2CCOCC2)cc1 (stereo in doubt) [Example 1]
Result block: 6.35

----------
Please go through the items and note down their IC50.
target-entity: MMP-2 (Homo sapiens)
Sequence (P08253 110-660): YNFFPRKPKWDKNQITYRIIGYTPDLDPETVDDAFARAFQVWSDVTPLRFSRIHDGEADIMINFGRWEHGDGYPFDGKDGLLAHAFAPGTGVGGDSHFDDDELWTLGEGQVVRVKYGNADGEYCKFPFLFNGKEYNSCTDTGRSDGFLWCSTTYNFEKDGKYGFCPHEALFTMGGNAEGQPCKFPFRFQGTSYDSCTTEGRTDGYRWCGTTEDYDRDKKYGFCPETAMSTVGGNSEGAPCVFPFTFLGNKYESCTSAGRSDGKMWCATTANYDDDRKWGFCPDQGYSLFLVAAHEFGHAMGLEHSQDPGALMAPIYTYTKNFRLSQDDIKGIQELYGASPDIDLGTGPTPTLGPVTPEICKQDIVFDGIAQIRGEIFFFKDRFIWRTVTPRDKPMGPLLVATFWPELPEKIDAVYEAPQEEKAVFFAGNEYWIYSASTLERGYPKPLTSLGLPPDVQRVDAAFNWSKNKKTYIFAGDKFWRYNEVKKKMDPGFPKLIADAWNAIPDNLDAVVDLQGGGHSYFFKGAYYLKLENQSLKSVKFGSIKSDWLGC
Respond numerically; units are nM and should not be typed.

Query block: Which IC50 value belongs to O=C(O)[C@H]1[C@H](Cn2nnc3ccccc3c2=O)CC[C@@H]1C(=O)c1ccc(OCC2CCOCC2)cc1 (stereo in doubt) ?
Result block: 140

Query block: Which IC50 value belongs to O=C(O)[C@@H]1[C@@H](Cn2nnc3ccccc3c2=O)CC[C@H]1C(=O)c1ccc(OCCC2CCOCC2)cc1 (single isomer, unassigned) ?
Result block: 44

Query block: Which IC50 value belongs to O=C(O)[C@@H]1[C@@H](Cn2nnc3ccccc3c2=O)CC[C@H]1C(=O)c1ccc(OCC2CCOCC2)cc1 (stereo in doubt) ?
Result block: 60
